Please go through the items and note down their aptazyme ON/OFF ratio.
B1: Pistol ribozyme (parent)
chain: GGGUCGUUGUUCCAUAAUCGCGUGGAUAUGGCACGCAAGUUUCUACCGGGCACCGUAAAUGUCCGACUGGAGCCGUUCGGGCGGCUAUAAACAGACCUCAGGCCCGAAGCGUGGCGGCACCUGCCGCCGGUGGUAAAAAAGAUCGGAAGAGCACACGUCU

Variants of: B1
Test: aptazyme ON/OFF ratio, guanine; higher = stronger switching; co-transcriptional cleavage with and without guanine
Numbers only.

As a guide, the following entries are already answered.
* U7G U8A G9C U10C U11C C12G C13A | 1.05
* U7G G9U U10C U11A C12U | 1.8
* G9C U10C U11C C12U C13A | 1.02
* U7G U8G G9A C12U C13G | 1.22

Please give aptazyme ON/OFF ratio for each item listed below.
1. U7A G9A U11A C12G C13U
2. U7C U8G G9C U10G U11A C12G C13A

1. 1.28
2. 1.24

Please give aptazyme ON/OFF ratio for each item listed below.
1. U7C U8C G9U U10A C12A
2. U7C U8G G9C U10C U11A C12A C13G
3. U7A U8G G9A U10C U11C C12G

[1.22, 1.06, 1.07]

Please give aptazyme ON/OFF ratio for each item listed below.
1. U8C G9U U10A U11A C13A
2. U7A U11C C12A
3. G9C U11A C12A C13A
4. U7C G9U U10A U11G C12A C13U

1.15
1.39
1.26
1.18

Please give aptazyme ON/OFF ratio for each item listed below.
1. U7C G9C U10C U11C C12A C13A
2. U7C U8G G9C U10A C12A C13G
3. U7A U8A G9A U10G U11G C12A C13U
4. U7C U8C G9U U10G C12U C13G
5. U7C U8A G9U U11C C13A

1. 1.04
2. 1.1
3. 1.29
4. 1.12
5. 1.04
